- system name: V2 (Homo sapiens)
- Sequence (P30518 whole entry): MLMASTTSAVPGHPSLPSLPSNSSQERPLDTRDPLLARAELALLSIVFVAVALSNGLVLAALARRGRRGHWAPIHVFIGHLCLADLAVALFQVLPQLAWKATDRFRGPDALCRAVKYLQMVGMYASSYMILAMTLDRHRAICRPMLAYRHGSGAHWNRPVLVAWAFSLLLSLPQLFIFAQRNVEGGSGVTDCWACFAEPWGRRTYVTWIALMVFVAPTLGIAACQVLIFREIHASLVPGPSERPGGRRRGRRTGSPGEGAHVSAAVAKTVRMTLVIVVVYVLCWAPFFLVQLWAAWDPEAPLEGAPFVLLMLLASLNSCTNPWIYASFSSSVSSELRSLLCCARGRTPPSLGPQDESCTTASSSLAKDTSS
- assay protocol: In vitro recombinant vasopressin receptor binding assay (V2 Bdg), displacement of 3H-arginine vasopressin
- Design: expressed in transfected cells; host or cells: HEK-293
- assay context: 0.1 uM; printed in parentheses in place of IC50

compound	V2 Bdg % inh
O=C(Nc1ccc(C(=O)N2CC3CN(Cc4ccccc4)CCN3Cc3ccccc32)cc1)c1ccccc1-c1ccccc1 (racemic) [Compound 57]	(25%/0.1 uM)
Cc1ccc(-c2ccccc2C(=O)Nc2ccc(C(=O)N3CC4CN(C)CCN4Cc4ccccc43)cc2C)cc1 (racemic) [Compound 79]	(33%/0.1 uM)
CC(C)N1CCN2Cc3ccccc3N(C(=O)c3ccc(NC(=O)c4ccccc4-c4ccccc4)cc3Cl)CC2C1 (racemic) [Compound 60]	(25%/0.1 uM)
O=C(Nc1ccc(C(=O)N2CC3CSCCN3Cc3ccccc32)cc1)c1ccccc1-c1cccs1 (racemic) [Compound 52]	(36%/0.1 uM)
COc1cc(NC(=O)c2ccccc2-c2ccccc2)ccc1C(=O)N1CC2CN(C)CCN2Cc2ccccc21 (racemic) [Compound 84]	(36%/0.1 uM)
O=C(Nc1ccc(C(=O)N2CC3CNCCN3Cc3ccccc32)cc1)c1ccccc1-c1ccccc1 (racemic) [Compound 58]	(33%/0.1 uM)

###

- system name: human V-1 receptor (Homo sapiens)
- Construct: expressed in transfected cells; host or cells: HEK-293
- assay protocol: In vitro recombinant vasopressin receptor binding assay (V1 Bdg), displacement of 3H-arginine vasopressin
- assay context: 1 uM
endpoint label: V1 Bdg % inh

compound	system name	recorded value
COc1cc(C(=O)N2CC3CN(C)CCN3Cc3ccccc32)ccc1NC(=O)c1ccccc1C (racemic)	human V-1 receptor (Homo sapiens)	(12%/1 uM)
CN1CCN2Cc3ccccc3N(C(=O)c3ccc(NC(=O)c4c(F)cccc4F)cc3Cl)CC2C1 (racemic)	human V-1 receptor (Homo sapiens)	(12%/1 uM)

###

- system name: human V-1 receptor (Homo sapiens, UniProt P37288)
- Construct: expressed in transfected cells; host or cells: HEK-293
- Sequence (P37288 whole entry): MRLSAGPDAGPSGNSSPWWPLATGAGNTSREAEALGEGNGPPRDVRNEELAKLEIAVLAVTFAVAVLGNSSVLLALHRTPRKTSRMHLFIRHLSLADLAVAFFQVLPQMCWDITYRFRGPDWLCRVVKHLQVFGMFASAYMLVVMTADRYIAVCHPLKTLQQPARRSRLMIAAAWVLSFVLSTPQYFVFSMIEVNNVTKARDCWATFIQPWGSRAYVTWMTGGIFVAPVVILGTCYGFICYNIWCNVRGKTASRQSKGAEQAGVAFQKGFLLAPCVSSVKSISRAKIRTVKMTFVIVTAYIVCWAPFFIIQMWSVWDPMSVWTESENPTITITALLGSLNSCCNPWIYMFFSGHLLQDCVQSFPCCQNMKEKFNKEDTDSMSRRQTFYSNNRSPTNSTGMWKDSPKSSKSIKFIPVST
- assay protocol: In vitro recombinant vasopressin receptor binding assay (V1 Bdg), displacement of 3H-arginine vasopressin
- assay context: read-out: V1 Bdg (% inh, 0.1 uM)
A collection of molecules and their measured inhibition at 0.1 µM
endpoint label: inhibition at 0.1 µM (%)

molecule	recorded value
O=C(Nc1ccc(C(=O)N2C[C@H]3COCCN3Cc3ccccc32)c(Cl)c1)c1cc(O)ccc1-c1ccccc1 [Compound 8]	32
Cc1ccc(-c2ccccc2C(=O)Nc2ccc(C(=O)N3CC4COCCN4Cc4ccccc43)c(C)c2)cc1 (racemic) [Compound 28]	14
Cc1csc(-c2cc(F)ccc2C(=O)Nc2ccc(C(=O)N3CC4COCCN4Cc4ccccc43)c(Cl)c2)c1 (racemic) [Compound 9]	18
O=C(Nc1ccc(C(=O)N2CC3COCCN3Cc3ccccc32)c(Cl)c1)c1cccc(Cl)c1F (racemic) [Compound 18]	15
O=C(Nc1ccc(C(=O)N2CC3COCCN3Cc3ccccc32)cc1O)c1ccccc1-c1ccccc1 (racemic) [Compound 22]	67
O=C(Nc1ccc(C(=O)N2CC3COCCN3Cc3ccccc32)c(Cl)c1)c1ccccc1SC(F)F (racemic) [Compound 19]	24
Cc1ccccc1C(=O)Nc1ccc(C(=O)N2CC3COCCN3Cc3ccccc32)c(C)c1 (racemic) [Compound 27]	7

###

- system name: human V-1 receptor (Homo sapiens, UniProt P37288)
- Construct: expressed in transfected cells; host or cells: HEK-293
- assay protocol: In vitro recombinant vasopressin receptor binding assay (V1 Bdg), displacement of 3H-arginine vasopressin
- assay context: 1 uM
- Protocol: In vitro Recombinant Vasopressin Receptor Binding Assay Compounds were assessed for their ability to displace ^3H-arginine vasopressin from the human V-1 or V-2 receptor in HEK-293 cells. […] The top of the plate was sealed, and the plate was counted. Non-specific binding was determined by the addition of 1.25 uM arginine-8-vasopressin in those wells.
endpoint label: V1 Bdg % inh

compound	endpoint label	recorded value
Cc1cc(C(=O)N2CC3CN(C)CCN3Cc3ccccc32)ccc1NC(=O)c1ccccc1-c1ccccc1 (racemic)	V1 Bdg % inh	(2%/1 uM)
Cc1ccccc1C(=O)Nc1c(C)cc(C(=O)N2CC3CN(C)CCN3Cc3ccccc32)cc1C (racemic)	V1 Bdg % inh	(19%/1 uM)
COc1cc(NC(=O)c2ccccc2-c2ccc(C)cc2)ccc1C(=O)N1CC2CN(C)CCN2Cc2ccccc21 (racemic)	V1 Bdg % inh	(19%/1 uM)
O=C(Nc1ccc(C(=O)N2CC3CN(CC(F)(F)F)CCN3Cc3ccccc32)c(Cl)c1)c1ccccc1-c1ccccc1 (racemic)	V1 Bdg % inh	(2%/1 uM)

###

- system name: V2 (Homo sapiens)
- assay protocol: In vitro recombinant vasopressin receptor binding assay (V2 Bdg), displacement of 3H-arginine vasopressin
- Design: expressed in transfected cells; host or cells: HEK-293
- assay context: read-out: V2 Bdg % inh
endpoint label: inhibition at 0.1 µM (%)

compound	system name	recorded value
Cc1cccc2c1N(C(=O)c1ccc(NC(=O)c3ccccc3-c3ccccc3)cc1)CC1CSCCN1C2 (racemic)	V2 (Homo sapiens)	37
COc1cccc2c1N(C(=O)c1ccc(NC(=O)c3ccccc3-c3ccccc3)cc1)CC1CSCCN1C2 (racemic)	V2 (Homo sapiens)	12
CN1CCN2Cc3ccccc3N(C(=O)c3ccc(NC(=O)c4ccccc4-c4ccccc4)cc3Cl)CC2C1 (racemic)	V2 (Homo sapiens)	71
CN1CCN2Cc3ccccc3N(C(=O)c3ccc(NC(=O)c4cc(F)ccc4-c4ccccc4)cc3Cl)CC2C1 (racemic)	V2 (Homo sapiens)	72
Cc1csc(-c2ccccc2C(=O)Nc2ccc(C(=O)N3CC4COCCN4Cc4ccccc43)cc2)c1 (racemic)	V2 (Homo sapiens)	57
COc1cc(C(=O)N2CC3CN(C)CCN3Cc3ccccc32)ccc1NC(=O)c1ccccc1-c1ccc(C)cc1 (racemic)	V2 (Homo sapiens)	73

###

# reported inhibition at 0.1 µM; entries follow
- system name: human V-1 receptor (Homo sapiens, UniProt P37288)
- Construct: expressed in transfected cells; host or cells: HEK-293
- assay protocol: In vitro recombinant vasopressin receptor binding assay (V1 Bdg), displacement of 3H-arginine vasopressin
- assay context: read-out: V1 Bdg (% inh, 0.1 uM)
endpoint label: inhibition at 0.1 µM (%)

compound	system name	endpoint label	quantity unit	recorded value
Cc1cccc(C)c1C(=O)Nc1ccc(C(=O)N2CC3COCCN3Cc3ccccc32)c(Cl)c1 (racemic)	human V-1 receptor (Homo sapiens, UniProt P37288)	inhibition at 0.1 µM	%	15
O=C(Nc1ccc(C(=O)N2CC3COCCN3Cc3ccccc32)c(Cl)c1)c1cc(F)c(F)c(F)c1F (racemic)	human V-1 receptor (Homo sapiens, UniProt P37288)	inhibition at 0.1 µM	%	20
O=C(Nc1ccc(C(=O)N2C[C@H]3COCCN3Cc3ccccc32)c(Cl)c1)c1ccccc1-c1ccc(O)cc1	human V-1 receptor (Homo sapiens, UniProt P37288)	inhibition at 0.1 µM	%	29
Cc1ccc(-c2ccccc2C(=O)Nc2ccc(C(=O)N3CC4COCCN4Cc4ccccc43)c(F)c2)cc1 (racemic)	human V-1 receptor (Homo sapiens, UniProt P37288)	inhibition at 0.1 µM	%	74
O=C(Nc1ccc(C(=O)N2CC3CC=CCN3Cc3ccccc32)cc1)c1ccccc1-c1ccccc1 (stereo not drawn)	human V-1 receptor (Homo sapiens, UniProt P37288)	inhibition at 0.1 µM	%	29
Cc1ccccc1C(=O)Nc1ccc(C(=O)N2CC3COCCN3Cc3ccccc32)c(Cl)c1 (racemic)	human V-1 receptor (Homo sapiens, UniProt P37288)	inhibition at 0.1 µM	%	34
Cc1cccc(C(=O)Nc2ccc(C(=O)N3CC4COCCN4Cc4ccccc43)c(Cl)c2)c1C (racemic)	human V-1 receptor (Homo sapiens, UniProt P37288)	inhibition at 0.1 µM	%	11
O=C(Nc1ccc(C(=O)N2CC3COCCN3Cc3ccccc32)cc1)c1ccccc1-c1ccccc1 (racemic)	human V-1 receptor (Homo sapiens, UniProt P37288)	inhibition at 0.1 µM	%	69
Cc1cc(NC(=O)c2ccccc2-c2ccccc2)ccc1C(=O)N1CC2COCCN2Cc2ccccc21 (racemic)	human V-1 receptor (Homo sapiens, UniProt P37288)	inhibition at 0.1 µM	%	3
O=C(Nc1ccc(C(=O)N2CC3CSCCN3Cc3cc(F)ccc32)c(Cl)c1)c1ccccc1-c1ccccc1 (racemic)	human V-1 receptor (Homo sapiens, UniProt P37288)	inhibition at 0.1 µM	%	9
O=C(Nc1ccc(C(=O)N2CC3CSCCN3Cc3ccccc32)cc1)c1ccccc1-c1ccccc1 (racemic)	human V-1 receptor (Homo sapiens, UniProt P37288)	inhibition at 0.1 µM	%	42
O=C(Nc1ccc(C(=O)N2CC3CCCCN3Cc3ccccc32)cc1)c1ccccc1-c1ccccc1 (stereo not drawn)	human V-1 receptor (Homo sapiens, UniProt P37288)	inhibition at 0.1 µM	%	31
O=C(Nc1ccc(C(=O)N2C[C@H]3COCCN3Cc3ccccc32)c(Cl)c1)c1ccc(O)cc1-c1ccccc1	human V-1 receptor (Homo sapiens, UniProt P37288)	inhibition at 0.1 µM	%	49
O=C(Nc1ccc(C(=O)N2CC3COCCN3Cc3ccccc32)c(O)c1)c1ccccc1-c1ccccc1 (racemic)	human V-1 receptor (Homo sapiens, UniProt P37288)	inhibition at 0.1 µM	%	33
O=C(Nc1ccc(C(=O)N2CC3CSCCN3Cc3cc(Cl)ccc32)cc1)c1ccccc1-c1ccccc1 (racemic)	human V-1 receptor (Homo sapiens, UniProt P37288)	inhibition at 0.1 µM	%	75
COc1cc(NC(=O)c2ccccc2-c2ccccc2)ccc1C(=O)N1CC2COCCN2Cc2ccccc21 (racemic)	human V-1 receptor (Homo sapiens, UniProt P37288)	inhibition at 0.1 µM	%	36
Cc1ccc2c(c1)CN1CCSCC1CN2C(=O)c1ccc(NC(=O)c2ccccc2-c2ccccc2)cc1 (racemic)	human V-1 receptor (Homo sapiens, UniProt P37288)	inhibition at 0.1 µM	%	76
COc1cc(C(=O)N2CC3COCCN3Cc3ccccc32)ccc1NC(=O)c1ccccc1-c1ccccc1 (racemic)	human V-1 receptor (Homo sapiens, UniProt P37288)	inhibition at 0.1 µM	%	69
Cc1ccc(-c2ccccc2C(=O)Nc2ccc(C(=O)N3CC4COCCN4Cc4ccccc43)c(Cl)c2)cc1 (racemic)	human V-1 receptor (Homo sapiens, UniProt P37288)	inhibition at 0.1 µM	%	60
CN(C)c1cc(NC(=O)c2ccccc2-c2ccccc2)ccc1C(=O)N1C[C@H]2CSCCN2Cc2ccccc21	human V-1 receptor (Homo sapiens, UniProt P37288)	inhibition at 0.1 µM	%	8
O=C(Nc1ccc(C(=O)N2C[C@H]3COCCN3Cc3ccccc32)c(Cl)c1)c1ccccc1-c1cccc(O)c1	human V-1 receptor (Homo sapiens, UniProt P37288)	inhibition at 0.1 µM	%	1

All values here come from patent US6713475B2.
